All values here come from paper PMC7463632.

Give Ki for every item shown.
Target: human histamine H4 receptor (Homo sapiens, UniProt Q9H3N8)
Construct: purchased Euroscreen (Brussels, Belgium); host or cells: CHO cells (membrane preparations)
Sequence (Q9H3N8 whole entry): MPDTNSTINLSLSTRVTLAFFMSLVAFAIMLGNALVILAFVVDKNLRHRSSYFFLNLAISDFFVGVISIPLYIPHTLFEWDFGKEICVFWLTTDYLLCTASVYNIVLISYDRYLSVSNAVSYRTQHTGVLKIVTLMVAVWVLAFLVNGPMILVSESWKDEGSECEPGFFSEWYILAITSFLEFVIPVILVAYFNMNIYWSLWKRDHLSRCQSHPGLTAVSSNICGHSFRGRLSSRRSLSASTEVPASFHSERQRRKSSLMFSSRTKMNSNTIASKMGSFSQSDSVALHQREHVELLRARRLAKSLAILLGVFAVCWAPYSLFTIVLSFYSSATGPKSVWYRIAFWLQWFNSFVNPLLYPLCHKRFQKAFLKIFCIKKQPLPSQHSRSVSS
Assay: Radioligand binding assay with [3H]histamine on CHO cell membranes expressing recombinant human H4 receptor
Settings: human H4R, mean ± SEM (n = 3–5)
Provide the reading as a plain figure in µM.

Problem: Identify the reported Ki for the following entry. Cl.Cl.Clc1ccc(CNC[C@H]2CC[C@]3(c4c[nH]cn4)C[C@H]23)cc1
Solution: 0.501

Problem: Tell me measured Ki for CC[C@H](CNCc1ccc(Cl)cc1)[C@H]1C[C@@H]1c1c[nH]cn1 please.
Solution: 0.0765

Problem: State its Ki: CC[C@@H](CNCc1ccc(Cl)cc1)[C@H]1C[C@@H]1c1c[nH]cn1
Solution: 0.009

Problem: Specify reported Ki for the compound shown: Clc1ccc(CNC[C@@H]2CC[C@@]3(c4c[nH]cn4)C[C@@H]23)cc1 (single isomer, unassigned)
Solution: 0.416

Problem: Indicate its recorded Ki; the compound in question is Clc1ccc(CNC[C@@H]2CC[C@]3(c4c[nH]cn4)C[C@H]23)cc1
Solution: 0.602

Problem: Give reported Ki value for Clc1ccc(CNC[C@H]2CC[C@@]3(c4c[nH]cn4)C[C@@H]23)cc1 (single isomer, unassigned)
Solution: 0.0692
